// data source = patent EP2524912A1

target: human Kv1.3 (Homo sapiens); experiment: Kv1.3 patch-clamp electrophysiology (planar electrode, whole-cell, steady state current); settings: CHO/Kv1.3 stable cell line; steady state current amplitude at end of 500 ms depolarising pulse to +40 mV; values given as ranges; read-out: IC50 (Kv1.3 ephys steady state)
Sequence (P22001 whole entry): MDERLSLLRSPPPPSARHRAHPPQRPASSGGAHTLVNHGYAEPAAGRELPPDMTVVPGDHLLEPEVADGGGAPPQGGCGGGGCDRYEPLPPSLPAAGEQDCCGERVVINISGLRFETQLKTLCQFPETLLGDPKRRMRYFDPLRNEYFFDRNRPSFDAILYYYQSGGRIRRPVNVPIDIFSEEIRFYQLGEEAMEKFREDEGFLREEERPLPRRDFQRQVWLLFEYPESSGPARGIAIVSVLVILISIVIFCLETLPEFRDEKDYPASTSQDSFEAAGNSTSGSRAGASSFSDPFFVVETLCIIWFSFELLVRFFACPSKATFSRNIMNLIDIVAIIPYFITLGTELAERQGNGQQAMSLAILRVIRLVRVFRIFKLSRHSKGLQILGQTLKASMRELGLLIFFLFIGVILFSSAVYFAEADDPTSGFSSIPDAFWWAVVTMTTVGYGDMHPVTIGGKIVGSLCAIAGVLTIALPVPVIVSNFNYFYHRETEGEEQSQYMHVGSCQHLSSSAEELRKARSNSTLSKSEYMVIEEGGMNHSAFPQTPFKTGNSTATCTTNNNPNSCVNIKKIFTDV
This section presents compounds with their documented IC50 values.

compound="CC(c1ccc2c(c1)CCC2)N(CCOc1ccccn1)C(=O)CCCc1ccccc1 (centres unmarked)" tgt="human Kv1.3 (Homo sapiens)" measured_property=IC50 observed="50 to 200 nM"
compound="COCc1ccccc1C(C)N(Cc1ccccn1)C(=O)CCc1ccc(F)cc1 (centres unmarked)" tgt="human Kv1.3 (Homo sapiens)" measured_property=IC50 observed="200 to 1000 nM"
compound="CC(c1ccc2c(c1)CCC2)N(CCOc1ccccn1)C(=O)CCc1ccc(F)cc1 (centres unmarked)" tgt="human Kv1.3 (Homo sapiens)" measured_property=IC50 observed="50 to 200 nM"
compound="O=C(CS(=O)(=O)c1ccc(F)cc1)N(Cc1ccccn1)C(c1ccccc1)C1CC1 (centres unmarked)" tgt="human Kv1.3 (Homo sapiens)" measured_property=IC50 observed="200 to 1000 nM"
compound="CCC(c1ccc2c(c1)CC(C)O2)N(Cc1ccccn1)C(=O)CCc1ccc(F)cc1 (centres unmarked)" tgt="human Kv1.3 (Homo sapiens)" measured_property=IC50 observed="50 to 200 nM"

Dear colleague, I am looking for the recorded IC50 of the following compound: CC(c1ccc2c(c1)SC(C)(C)O2)N(Cc1ccccn1)C(=O)CCc1cccc(C(F)(F)F)c1 (centres unmarked)
200 to 1000 nM

IC50 lookup needed for CC(C)C(c1ccccc1)N(Cc1ccccn1)C(=O)CCc1ccc(F)cc1 (centres unmarked) , thanks.
50 to 200 nM

Need IC50 of O=C(CCc1ccc(F)cc1)N(Cc1ccccn1)C(c1ccc(Cl)cc1)C1CC1 (centres unmarked) , thanks.
50 to 200 nM

Fill in the blank: the reported IC50 of COc1ccc(C(C2CC2)N(Cc2ccccn2)C(=O)CC(C)c2ccc(F)cc2)cc1 (centres unmarked) is ____.
< 50 nM

Given the entry CC(CC(=O)N(CCOc1ccccn1)C(C)c1ccc2c(c1)CCC2)c1ccc(F)cc1 (centres unmarked) , report its measured IC50.
50 to 200 nM

Name the reported IC50 value associated with the compound CCC(CC)C(c1ccccc1)N(Cc1ccccn1)C(=O)CCc1ccc(F)cc1 (centres unmarked)
200 to 1000 nM

Which IC50 is reported for this compound? CC(c1ccc2c(c1)[S+]([O-])C(C)(C)O2)N(Cc1ccccn1)C(=O)CCc1cccc(C(F)(F)F)c1 (centres unmarked)
> 1000 nM

I'd like to know its IC50. The compound in question is Cc1cccc(OCCN(C(=O)CCc2ccc(F)cc2)C(C)c2ccc3c(c2)CCC3)n1 (centres unmarked)
50 to 200 nM

Quick one: IC50 of CC(CC(=O)N(Cc1ccccn1)C(c1ccc(Cl)cc1)C1CC1)S(=O)(=O)c1ccc(F)cc1 (centres unmarked) ?
50 to 200 nM

Bench note: what IC50 did CC(c1ccc2c(c1)CCC2)N(Cc1ccccn1)C(=O)CCc1ccc(F)cc1 (centres unmarked) show?
200 to 1000 nM

Requested read-out: IC50. Entry: COCc1ccccc1C(C)N(Cc1ccccn1)C(=O)C1(S(=O)(=O)c2ccc(F)cc2)CC1 (centres unmarked)
50 to 200 nM

Form field: reported IC50 of CC(c1ccc2c(c1)CCC2)N(CCOc1ccccn1)C(=O)C1(c2ccc(Cl)cc2)CCC1 (centres unmarked)
200 to 1000 nM
